target desc: Gamma-aminobutyric acid receptor subunit alpha-4/beta3/delta (Homo sapiens, UniProt O14764+P28472+P48169)
Sequence (P28472 whole entry): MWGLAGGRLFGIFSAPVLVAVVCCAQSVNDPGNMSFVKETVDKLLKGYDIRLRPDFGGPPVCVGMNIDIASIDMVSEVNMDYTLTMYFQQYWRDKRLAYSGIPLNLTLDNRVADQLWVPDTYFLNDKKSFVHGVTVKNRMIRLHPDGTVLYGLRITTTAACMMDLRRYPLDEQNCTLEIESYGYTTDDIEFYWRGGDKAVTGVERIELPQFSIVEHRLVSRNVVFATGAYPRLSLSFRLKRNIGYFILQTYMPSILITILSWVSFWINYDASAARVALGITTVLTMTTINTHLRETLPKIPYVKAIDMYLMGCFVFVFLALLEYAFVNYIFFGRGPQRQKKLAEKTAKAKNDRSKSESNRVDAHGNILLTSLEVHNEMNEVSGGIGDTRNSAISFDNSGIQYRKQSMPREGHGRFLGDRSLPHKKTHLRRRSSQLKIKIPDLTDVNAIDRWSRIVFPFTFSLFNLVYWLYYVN
Sequence (P48169 whole entry): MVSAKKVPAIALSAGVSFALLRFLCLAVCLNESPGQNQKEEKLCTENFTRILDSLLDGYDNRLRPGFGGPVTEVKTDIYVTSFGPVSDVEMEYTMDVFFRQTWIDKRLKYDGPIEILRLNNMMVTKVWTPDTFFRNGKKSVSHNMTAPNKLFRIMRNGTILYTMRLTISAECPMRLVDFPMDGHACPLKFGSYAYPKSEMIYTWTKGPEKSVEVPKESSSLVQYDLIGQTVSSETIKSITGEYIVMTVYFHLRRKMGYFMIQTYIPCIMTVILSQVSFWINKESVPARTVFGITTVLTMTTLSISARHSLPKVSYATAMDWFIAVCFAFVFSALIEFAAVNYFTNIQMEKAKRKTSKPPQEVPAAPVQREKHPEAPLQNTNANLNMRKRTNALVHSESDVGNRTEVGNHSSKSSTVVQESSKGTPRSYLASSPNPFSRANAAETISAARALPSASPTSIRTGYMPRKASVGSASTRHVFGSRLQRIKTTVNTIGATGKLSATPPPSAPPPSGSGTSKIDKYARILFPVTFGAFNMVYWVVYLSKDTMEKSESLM
Sequence (O14764 whole entry): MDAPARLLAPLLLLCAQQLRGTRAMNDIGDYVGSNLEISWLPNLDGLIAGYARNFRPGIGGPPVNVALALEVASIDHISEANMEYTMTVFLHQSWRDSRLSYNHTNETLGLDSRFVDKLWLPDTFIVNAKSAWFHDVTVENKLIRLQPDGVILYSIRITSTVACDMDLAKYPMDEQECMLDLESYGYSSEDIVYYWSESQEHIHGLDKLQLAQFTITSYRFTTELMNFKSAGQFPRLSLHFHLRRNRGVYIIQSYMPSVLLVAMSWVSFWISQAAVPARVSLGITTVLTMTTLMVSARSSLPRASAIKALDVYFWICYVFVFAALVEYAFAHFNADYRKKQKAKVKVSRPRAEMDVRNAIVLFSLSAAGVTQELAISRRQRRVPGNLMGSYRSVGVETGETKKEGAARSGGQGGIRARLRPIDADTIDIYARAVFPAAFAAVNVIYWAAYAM
assay notes: Positive allosteric modulation of extrasynaptic alpha4beta3delta GABA-A receptor (unknown origin) transfected in CHO cells assessed as potentiation of GABA-induced peak current amplitude at -80 mV holding potential preincubated for 30 secs followed by GABA stimulation for 2 secs by manual patch assay
readout type: EC50 (nM)
Your answer should be a plain number; it is taken to be in nM.

1) COc1cccc(-n2ncn(CC(=O)[C@H]3CC[C@H]4[C@@H]5CC[C@@H]6C[C@](C)(O)CC[C@@H]6[C@H]5CC[C@]34C)c2=O)c1 : 21
2) C[C@@]1(O)CC[C@H]2[C@H](CC[C@@H]3[C@@H]2CC[C@]2(C)[C@@H](C(=O)Cn4cnn(-c5ccc(F)cc5F)c4=O)CC[C@@H]32)C1 : 89

Would you kindly look at the next entry?
Ask: Note down EC50 recorded for `C[C@@]1(O)CC[C@H]2[C@H](CC[C@@H]3[C@@H]2CC[C@]2(C)[C@@H](C(=O)Cn4cnn(CC5CC5)c4=O)CC[C@@H]32)C1`
Reply: 122

Origin of the recorded values: ChEMBL document CHEMBL5608182
